Assay: NCI Yeast Anticancer Drug Screen. Data for the mlh1 rad18 strain (AID 175)
Conditions: S. cerevisiae mlh1 rad18 strain growth inhibition; at 5.0 µM (retest, dose inferred, filed as 0.5); stronger effect = higher value
Procedure: Growth inhibition of yeast strains with defined genetic alterations is measured as a screen for potential anti-cancer activity. Selected strains with alterations in DNA damage repair or cell cycle control were exposed to compounds and growth inhibition was measured relative to vehicle treated controls. The strain used in this assay is mlh1 rad18
Compounds without any hit were thinned out: in the full panel of roughly 79,000, 15% have a hit.
# growth inhibition values compiled below
Record the value in %, omitting the unit from your answer.

Example cases with answers are listed next.
Compound	growth inhibition, %
CCOC(=O)[C@@H](F)[C@H](Br)C(=O)OCC	80
CN(C)C(=O)Nc1ccc(Cc2ccc(NC(=O)N(C)C)cc2)cc1	-33
CCNc1cc(SC)nc(N)n1	1

What measured growth inhibition goes with O=C1/C(=C/c2cccc([N+](=O)[O-])c2)CCCc2ccccc21 ?
9

Item under review: Clc1ccc(C2SCc3nc4ccccc4n32)c(Cl)c1 (stereo not given) . Reported growth inhibition?
-10

Need growth inhibition, item COCC(O)Cn1cc([N+](=O)[O-])nc1C (stereo not given)
6

###

test: NCI Yeast Anticancer Drug Screen. Data for the mec2-1 strain (AID 157); details: S. cerevisiae mec2-1 strain, at 50.0 µM
Compounds without any hit were thinned out: in the full panel of roughly 79,000, 15% have a hit. Calls of active or inactive are those of the source. No stated cut-off is given here; in the data, active means growth inhibition above about 70%; inactive means the rest.
Pick one and only one: True for active, False for inactive

Outcome logged for Clc1ccccc1/C=C/c1ccnc2ccccc12 in this assay:
True

Any idea what this test logged for NCCCN1c2ccccc2Sc2ccc(Cl)cc21 ?
False

Hi, sorry to bother you, what did the test record for O=C1c2ccccc2-c2cc(S)c([N+](=O)[O-])cc21 ?
False

###

assay: NCI Yeast Anticancer Drug Screen. Data for the cln2 rad14 strain (AID 165);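 further: 0% = growth equal to vehicle treated cultures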; settings: S. cerevisiae cln2 rad14 strain, at 50.0 µM, stronger effect = higher value
This is part of a sample that, as a whole, favours compounds with a hit. Of some 79,000 tested, about 15% had one in any assay. The source made the active and inactive calls. No stated cut-off is given here; in the data, active means growth inhibition above about 70%; inactive means the rest.
Measurement Kind: growth inhibition

# example entries with known answers
Compound	growth inhibition
CC(=O)O/C=C1\c2ccccc2CCC1c1ccc2ccccc2c1 (centres undefined)	1.45% (inactive)
O=C1c2ccccc2C(=O)c2c1ccc(C(=O)O)c2-c1ccc2ccccc2c1	97.3% (active)
Nc1ccc(C(=O)N/C(=C\C=C\c2ccco2)c2nc3c4c(ccc3[nH]2)C(=O)c2ccccc2C4=O)cc1	44.7% (inactive)

Item under review: O=C(O)/C=C\c1cc2ccccc2c2ccccc12 . Reported growth inhibition?
98.3% (active)

Which value of growth inhibition has been reported for CCOC(=O)CC(=O)/C=C/c1ccncc1 in the records?
68.7% (inactive)

Item under review: COc1ccc2c(c1)CCCN2CCCCCCCCCN1CCCCC1 . Reported growth inhibition?
42.4% (inactive)

Using the record for CC(=O)Nc1ccc(/C=c2\sc3nnc(-c4cccnc4)n3c2=O)cc1 , report its growth inhibition.
71% (active)

###

experiment: NCI Yeast Anticancer Drug Screen. Data for the sgs1 mgt1 strain (AID 161);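 further: 0% = growth of cultures given vehicle only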; conditions: S. cerevisiae sgs1 mgt1 strain, at 50.0 µM
This is part of a sample that, as a whole, favours compounds with a hit. Of some 79,000 tested, about 15% had one in any assay. The source made the active and inactive calls. Rule as the data show it: active = growth inhibition above about 70%; inactive = the rest.
Return exactly one item of class 1 = active, class 0 = inactive

# example entries with known answers
Molecule	Group Label
COC(=O)c1cc(-c2ccc([N+](=O)[O-])cc2)c2c(=O)n(-c3ccccc3)[nH]c2n1	class 0
COc1cccc2c1C1c3ccccc3Sc3cccc(c31)O2 (centres undefined)	class 0
O=C(N/C(=C\c1cc(Cl)ccc1Cl)c1nc2ccc(Cl)cc2[nH]1)c1ccccc1	class 1
C=CCOC(=O)C(O)C(CC)CCCCC (centres undefined)	class 1
O=C(c1ccc(Cl)cc1)C1OC12C(=O)Nc1c(Cl)cc(Cl)cc12 (centres undefined)	class 1
CCN1CC(=O)N(C)C1=S	class 1

Please state the recorded outcome for this molecule: COc1cc(C(c2cc3c(cc2OC(C)=O)OCO3)C(C)C(C)=O)cc(OC)c1OC (centres undefined)
class 0

Outcome? CCOC(=O)[C@@H](F)[C@H](Br)C(=O)OCC
class 1

GET /call?item= C=CC(=O)N1C/C(=C\c2ccc([N+](=O)[O-])cc2)C(=O)/C(=C/c2ccc([N+](=O)[O-])cc2)C1 returns the recorded outcome of this test.
class 1

Answer briefly: the call reported for Cc1cc2oc3c(ccc(=O)n3C)c(=O)c2c(C)c1Cl in this assay.
class 0

What outcome does the record of this test show for CC(=O)Nc1ccc(C#N)c2ccccc12 ?
class 0

###

Items are presented alongside their recorded growth inhibition.
Assay: NCI Yeast Anticancer Drug Screen. Data for the mlh1 rad18 strain (AID 175)
Conditions: S. cerevisiae mlh1 rad18 strain growth inhibition; at 50.0 µM; stronger effect = higher value
Procedure: Growth inhibition of yeast strains with defined genetic alterations is measured as a screen for potential anti-cancer activity. Selected strains with alterations in DNA damage repair or cell cycle control were exposed to compounds and growth inhibition was measured relative to vehicle treated controls. The strain used in this assay is mlh1 rad18
The panel holds about 79,000 compounds, 15% with a hit somewhere; the sample as a whole holds those more often.
Record the value in %, omitting the unit from your answer.

Some molecules with recorded growth inhibition:
Molecule	Measure Unit	Value
CCCCCCCCCCCC(=O)C(=O)c1ccc(O)cc1O	%	96.7
Clc1ccc(C2NC(c3ccccc3)c3c(ccc4ccccc34)O2)cc1 (stereo unspecified)	%	77.7

--- query ---
Data request, read-out growth inhibition, for CC(=O)c1c(-c2ccc(Cl)cc2)c(-c2ccc(Cl)cc2)nn(CCO)c1=O
97.8

###

test: NCI Yeast Anticancer Drug Screen. Data for the mec2-1 strain (AID 157); details: S. cerevisiae mec2-1 strain, at 50.0 µM
About 79,000 compounds went through this panel and 15% of them were active in at least one assay; those are over-represented in the sample as a whole. Activity calls are given as the source filed them. No stated cut-off is given here; in the data, active means growth inhibition above about 70%; inactive means the rest.
Select the matching outcome among active, inactive

Compound	Group Label
C(=P(c1ccccc1)(c1ccccc1)c1ccccc1)[P+](c1ccccc1)(c1ccccc1)c1ccccc1	active
COc1cc(NCC(C)(O)CN2CCC(C)CC2C)c2ncccc2c1 (stereo not given)	inactive
O=C(c1ccccc1)C1C(c2ccccc2)OP(c2ccccc2)(c2ccccc2)(c2ccccc2)C1c1ccccc1 (stereo not given)	active
COc1ccc(-c2[nH]c(-c3ccc(OC)cc3)c(-c3ccccn3)c2-c2ccccn2)cc1	active
Nc1cc(Cl)c2c(c1)Cc1ccccc1-2	inactive
O=C(/C=C/c1ccccc1)CCN1CCC2CCC(C2)C1 (stereo not given)	active

Would you mind telling me which call this test gave Clc1ccc(C2=Nc3ccccc3SC(c3ccc(Cl)c(Cl)c3)C2)c(Cl)c1 (stereo not given) ?
inactive

What was the test verdict on Cn1c(=O)cc2c3c(ccc(C(=O)O)c31)C(=O)c1ccccc1-2 ?
inactive

Could you check what this test reported for CCOP(=O)(OCC)/C(C#N)=C/c1coc2cc(C)cc(C)c2c1=O ?
active

Dear all, I need the recorded test outcome for CCCCCCCCCCCC(=O)OCC1OC(OC)C(NC(=O)N(CCCl)N=O)C(O)C1O (stereo not given) , thank you.
inactive

###

test: NCI Yeast Anticancer Drug Screen. Data for the cln2 rad14 strain (AID 165);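 further: 0% = growth equal to vehicle treated cultures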; conditions: S. cerevisiae cln2 rad14 strain, at 50.0 µM, stronger effect = higher value
About 79,000 compounds went through this panel and 15% of them were active in at least one assay; those are over-represented in the sample as a whole.
Measurement Kind: growth inhibition (%)
Provide the reading as a plain figure in %.

Compound	Measurement Kind	Value
CC(C)(C[NH-])C[NH-].[Cl][Pt+2]([Cl])([Cl])[Cl]	growth inhibition	87.4
FC(F)(F)c1nc(Cl)nc2nc[nH]c12	growth inhibition	17.4
Cc1ccc2ccc(C(Nc3ccccc3)c3ccncc3)c(O)c2n1 (centres undefined)	growth inhibition	49.3
C1=C(c2c(-c3ccccc3)[nH]c3ccccc23)Cc2ccccc21	growth inhibition	30.2
ClCC1CSC2(CCCCC2)O1 (centres undefined)	growth inhibition	13.7
C=C1C(O)C2(O)OCC34C(CC5C(C)=CC(=O)C(O)C5(C)C23)OC(=O)C(OC(=O)C/C=C/CCCCCCCC)C14 (centres undefined)	growth inhibition	92
Nc1c(-c2ccc(Cl)cc2)[n+]([O-])c2ccccc2[n+]1[O-]	growth inhibition	47.7
Cc1c2ccncc2c(C)c2c1sc1ccccc12	growth inhibition	88.8

Query: growth inhibition; subject: COC(=O)C(=[N+]=[N-])C(=O)c1ccc(Cl)cc1
44.4

Field request: growth inhibition | item: CC(C)(C)c1cc(Nc2ccc([N+](=O)[O-])cc2[N+](=O)[O-])cc(C(C)(C)C)c1O
-45.6

Dear colleague, I am looking for the recorded growth inhibition of the following compound: CC(=O)OCCSCCOC(C)=O
12.2

# lookup: growth inhibition of CCCCC(CSC#N)SC#N (centres undefined)
97.2
